Cited source for all entries: ChEMBL document CHEMBL3885881

- Species: Rattus norvegicus
- protocolDetails: DrugMatrix - Regimen: Daily Repeat
- Type: toxicity, organism-based, Sprague-Dawley
- Design: regimen Daily Repeat, gender Male, age 6-8 weeks
- conditionLabel: in vivo, po, 120 mg/kg, 120 h, tissue Blood, route oral GAVAGE, dose level High, time 5 day, vehicle 100 % WATER
reportedEndpoint: ABSOLUTE BASOPHIL (CELLS/uL)
Lab book: enter the figure in CELLS/uL, no units written.

Name the reported ABSOLUTE BASOPHIL value associated with the molecule c1ccc([C@H]2CN3CCSC3=N2)cc1
0

* * *

Recorded MONOCYTE values for a group of molecules are listed next.
- Species: Rattus norvegicus
- protocolDetails: DrugMatrix - Regimen: Daily Repeat
- Format: toxicity, organism-based, Sprague-Dawley
- Set-up: regimen Daily Repeat, gender Male, age 6-8 weeks
- conditionLabel: in vivo, po, 0 mg/kg, 120 h, tissue Blood, route oral GAVAGE, dose level Control, time 5 day, vehicle .5 % CMC
Lab book: enter the figure in %, no units written.

A selection of reference data follows.
molecule=CCn1cc(C(=O)O)c(=O)c2cc(F)c(N3CCNCC3)cc21 reportedvalue=0.17
molecule="CC1CC(OC(=O)C(O)c2ccccc2)CC(C)(C)C1 (configuration not stated) [CYCLANDELATE]" reportedvalue=1.5
molecule="NC1=NC(=O)C(c2ccccc2)O1 (configuration not stated)" reportedvalue=4.33

Name the reported MONOCYTE value associated with the molecule CCOP(=S)(OCC)Oc1nc(Cl)c(Cl)cc1Cl
3.27

And then Nc1ccn([C@H]2CC[C@@H](CO)O2)c(=O)n1 , what is it?
2.67

And then OCCN(CCO)c1nc(N2CCCCC2)c2nc(N(CCO)CCO)nc(N3CCCCC3)c2n1 , what is it?
1.5

And then ClC(Cl)Br , what is it?
1.83

* * *

- Organism: Rattus norvegicus
- protocolDetails: DrugMatrix - Regimen: Daily Repeat
- Assay type: toxicity, organism-based, Sprague-Dawley
- Parameters: regimen Daily Repeat, gender Male, age 6-8 weeks
- conditionLabel: in vivo, po, 0 mg/kg, 120 h, tissue Plasma, route oral GAVAGE, dose level Control, time 5 day, […]
reportedEndpoint: CREATININE
Express your answer as a number followed by its unit.

A selection of reference data follows.
molecule="CCOC(=O)C1=C(COCCN)NC(C)=C(C(=O)OC)C1c1ccccc1Cl (stereo not given) [AMLODIPINE]" reportedvalue="0.2 mg/dL"
molecule="O=c1oc2ccccc2c(O)c1Cc1c(O)c2ccccc2oc1=O [DICUMAROL]" reportedvalue="0.2 mg/dL"
molecule="Cc1ccc(-c2cc(C(F)(F)F)nn2-c2ccc(S(N)(=O)=O)cc2)cc1 [CELECOXIB]" reportedvalue="0.37 mg/dL"
molecule="C[C@H]1O[C@@H](O[C@H]2[C@@H](O)C[C@H](O[C@H]3[C@@H](O)C[C@H](O[C@H]4CC[C@@]5(C)[C@H](CC[C@@H]6[C@@H]5C[C@@H](O)[C@]5(C)[C@@H](C7=CC(=O)OC7)CC[C@]65O)C4)O[C@@H]3C)O[C@@H]2C)C[C@H](O)[C@@H]1O [DIGOXIN]" reportedvalue="0.18 mg/dL"

Name the reported CREATININE value associated with the molecule Cc1oncc1C(=O)Nc1ccc(C(F)(F)F)cc1 [LEFLUNOMIDE]
0.29 mg/dL

* * *

Recorded ABSOLUTE EOSINOPHIL values for a group of compounds are listed next.
- Organism: Rattus norvegicus
- protocolDetails: DrugMatrix - Regimen: Daily Repeat
- Type: toxicity, organism-based, Sprague-Dawley
- Design: regimen Daily Repeat, gender Male, age 6-8 weeks
- conditionLabel: in vivo, iv, 0 mg/kg, 120 h, tissue Blood, dose level Control, time 5 day, vehicle 100 % SALINE
Starred links: 1 amine or outer side, 2 acyl side, 3 side chain; linkers in the order of their positions; H or OH if unused. Positions of bridges follow the written chain, without caps; N, C: chain ends. Non-standard residues stand in square brackets, D forms with d. Residues, ends and D or L forms follow the SMILES beside them. Chains are numbered I, II in the order given. Actinocin(9to1) = Cc1c2oc3c(C)ccc(C(=O)[*:1])c3nc-2c(C(=O)[*:2])c(N)c1=O; NMeV = CN[C@H](C(=O)O)C(C)C; Sar = CNCC(=O)O
Lab book: enter the figure in CELLS/uL, no units written.

A selection of reference data follows.
compound=CC[C@]1(O)C[C@H]2CN(CCc3c([nH]c4ccccc34)[C@@](C(=O)OC)(c3cc4c(cc3OC)N(C=O)[C@H]3[C@@](O)(C(=O)OC)[C@H](OC(C)=O)[C@]5(CC)C=CCN6CC[C@]43[C@@H]65)C2)C1 reportedendpoint="ABSOLUTE EOSINOPHIL" measurementunits=CELLS/uL reportedvalue=0
compound="Cc1c2oc3c(C)ccc(C(=O)N[C@@H]4C(=O)N[C@H](C(C)C)C(=O)N5CCC[C@H]5C(=O)N(C)CC(=O)N(C)[C@@H](C(C)C)C(=O)O[C@@H]4C)c3nc-2c(C(=O)N[C@@H]2C(=O)N[C@H](C(C)C)C(=O)N3CCC[C@H]3C(=O)N(C)CC(=O)N(C)[C@@H](C(C)C)C(=O)O[C@@H]2C)c(N)c1=O [DACTINOMYCIN] (I: T[dV]P[Sar][NMeV] / II: T[dV]P[Sar][NMeV]; ester I:1-I:C, II:1-II:C; linker I:N-II:N via Actinocin(9to1))" reportedendpoint="ABSOLUTE EOSINOPHIL" measurementunits=CELLS/uL reportedvalue=24.67
compound=COc1cc2c3cc1Oc1cc(ccc1O)C[C@@H]1c4c(cc(OC)c(O)c4Oc4ccc(cc4)C[C@@H]3N(C)CC2)CC[N+]1(C)C.[Cl-] reportedendpoint="ABSOLUTE EOSINOPHIL" measurementunits=CELLS/uL reportedvalue=159.17

Name the reported ABSOLUTE EOSINOPHIL value associated with the compound Cc1ccc(N(CC2=NCCN2)c2cccc(O)c2)cc1
33

* * *

- Species on record: Rattus norvegicus
- protocolDetails: DrugMatrix - Regimen: Daily Repeat
- Type: toxicity, organism-based, Sprague-Dawley
- Design: regimen Daily Repeat, gender Male, age 6-8 weeks
- conditionLabel: in vivo, po, 0 mg/kg, 120 h, tissue Plasma, route oral GAVAGE, dose level Control, time 5 day, vehicle 100 % WATER
reportedEndpoint: CARBON DIOXIDE (mmol/L)
Lab book: enter the figure in mmol/L, no units written.

A selection of reference data follows.
compound="C[C@H]1c2cccc(O)c2C(=O)C2=C(O)[C@]3(O)C(=O)C(C(N)=O)=C(O)[C@@H](N(C)C)[C@@H]3[C@@H](O)[C@@H]21.O [DOXYCYCLINE]" reportedvalue=32.33
compound="Cn1cc[nH]c1=S [METHIMAZOLE]" reportedvalue=31.33

Here's the next entry for you.
Name the reported CARBON DIOXIDE value associated with the compound C[C@](N)(Cc1ccc(O)c(O)c1)C(=O)O [METHYLDOPA]
25

* * *

- Species: Rattus norvegicus
- protocolDetails: DrugMatrix - Regimen: Daily Repeat
- Format: toxicity, organism-based, Sprague-Dawley
- Set-up: regimen Daily Repeat, gender Male, age 6-8 weeks
- conditionLabel: in vivo, po, 0 mg/kg, 72 h, tissue Blood, route oral GAVAGE, dose level Control, time 3 day, vehicle 100 % WATER
reportedEndpoint: LYMPHOCYTE (%)
Lab book: enter the figure in %, no units written.

A selection of reference data follows.
molecule=CNNCc1ccc(C(=O)NC(C)C)cc1 reportedvalue=92.67
molecule=NCCCCCC(=O)O reportedvalue=91
molecule="C=CCC1(C(C)CCC)C(=O)NC(=O)NC1=O (stereo not given)" reportedvalue=91.17
molecule=Cc1onc(-c2ccccc2Cl)c1C(=O)N[C@@H]1C(=O)N2[C@@H]1SC(C)(C)[C@@H]2C(=O)O reportedvalue=91

Here's the next entry for you.
Name the reported LYMPHOCYTE value associated with the molecule Nc1c2c(nc3ccccc13)CCCC2
82.33

* * *

- Species: Rattus norvegicus
- protocolDetails: DrugMatrix - Regimen: Daily Repeat
- Type: toxicity, organism-based, Sprague-Dawley
- Parameters: regimen Daily Repeat, gender Male, age 6-8 weeks
- conditionLabel: in vivo, po, 0 mg/kg, 120 h, tissue Plasma, route oral GAVAGE, dose level Control, time 5 day, vehicle 100 % WATER
reportedEndpoint: GLUCOSE (mg/dL)
Lab book: enter the figure in mg/dL, no units written.

A selection of reference data follows.
molecule=C[C@H](CS)C(=O)N1CCC[C@H]1C(=O)O reportedvalue=156.5
molecule=N[C@@H](Cc1ccc(O)c(O)c1)C(=O)O reportedvalue=139.33

Name the reported GLUCOSE value associated with the molecule C[C@](N)(Cc1ccc(O)c(O)c1)C(=O)O
161.67

And then Clc1cccc(Cl)c1N=C1NCCN1 , what is it?
143.33

And then CN(C)CCCN1c2ccccc2Sc2ccc(Cl)cc21 , what is it?
161.33

And then Nc1c2c(nc3ccccc13)CCCC2 , what is it?
180.67

And then CNNCc1ccc(C(=O)NC(C)C)cc1 , what is it?
153.67

And then Cn1cc[nH]c1=S , what is it?
135.67

And then COc1cc2nc(N3CCN(C(=O)C4COc5ccccc5O4)CC3)nc(N)c2cc1OC (stereo not given) , what is it?
139.33

And then C[C@H]1c2cccc(O)c2C(=O)C2=C(O)[C@]3(O)C(=O)C(C(N)=O)=C(O)[C@@H](N(C)C)[C@@H]3[C@@H](O)[C@@H]21.O , what is it?
139.33

And then NCCCCCC(=O)O , what is it?
146

And then c1ccc([C@H]2CN3CCSC3=N2)cc1 , what is it?
152.67

And then CC(O)CO (stereo not given) , what is it?
146

And then Cc1onc(-c2ccccc2Cl)c1C(=O)N[C@@H]1C(=O)N2[C@@H]1SC(C)(C)[C@@H]2C(=O)O , what is it?
146

And then C=CCC1(C(C)CCC)C(=O)NC(=O)NC1=O (stereo not given) , what is it?
137
